Data origin, for the record: patent US20140287419A1

Entries annotated with measured Percent Activity Improvement Over Parent (%)
- test-method-notes: Dicamba decarboxylation activity of computationally designed protein variants
- protocol-conditions: parent SEQ ID NO:1 or SEQ ID NO:41 listed as 100
endpoint-name: Percent Activity Improvement Over Parent (%)

[[record]]
molecule = "41 (protein, listed as Polaromonas sp.) MANGKIALEEHFATEETLMDSAGFVPDKDWPELRSRLLDIQDRRVRLMDEHGIETMILSLNAPAVQAIADSTRANETARRANDFLAEQVAKQPTRFRGFAALPMQDPELAARELERCVKELGFVGALVNGFSQDNRSAVPLYYDMAQYWPFWETVQALDVPFYLHPRNPLPSDARIYDGHAWLLGPTWAFGQETAVHALRLMGSGLFDKYPALKIILGHMGEGLPYSMWRIDHRNAWIKTTPKYPAKRKIVDYFNENFYLTTSGNFRTQTLIDAILEIGADRILFSTDWPFENIDHAADWFENTSISEADRKKIGWGNAQNLFKLNR"
reported_measurement = 100

[[record]]
molecule = "116 (protein, Dicamba decarboxylase variant clone DC.30.007) MAQGKVALEEHFAIPETLQDAAGFVPGDYWKELQHRLLDIQDRRVRLMDEHGIETMILSLNAPAVQAIADSTRANETARRANDFLAEQVAKQPTRFRGFAALPMQDPELAARELERCVKELGFVGALVNGFSQDNRSAVPLYYDMAQYWPFWETVQALDVPFYLHPRNPLPSDARIYDGHAWLLGPTWAFGQETAVHALRLMGSGLFDKYPALKIILGHMGEGLPYSMWRIDHRNAWIKTTPKYPAKRKIVDYFNENFYLTTSGNFRTQTLIDAILEIGADRILFSTDWPFENIDHAADWFENTSISEADRKKIGWGNAQNLFKLNR"
reported_measurement = 220

